experiment: Cytotoxicity against HUVEC incubated for 72 hrs by MTT assay; assay type: toxicity, cell-based; settings: human, HUVEC cells
Exercise: for every item that follows, state its recorded IC50 at 72 h.
Please state the figure in µM; there is no need to write the unit.

Please give the measured IC50 at 72 h for this compound: CC(C)[C@]12O[C@H]1[C@@H]1O[C@]13[C@]1(O[C@H]1C[C@H]1C4=C(CC[C@@]13C)C(=O)OC4)[C@@H]2O [TRIPTOLIDE]
0.044

Please give the measured IC50 at 72 h for this compound: CC(C)[C@]12O[C@H]1[C@@H]1O[C@]13[C@]1(O[C@H]1C[C@H]1C4=C(CC[C@@]13C)C(=O)OC4)[C@@H]2OC(=O)CCC(=O)OC[C@H]1OC(O)[C@H](O)[C@@H](O)[C@@H]1O (stereo partly drawn)
2.02

Please give the measured IC50 at 72 h for this compound: CC(C)[C@]12O[C@H]1[C@@H]1O[C@]13[C@]1(O[C@H]1C[C@H]1C4=C(CC[C@@]13C)C(=O)OC4)[C@@H]2OC(=O)CCC(=O)O[C@H]1[C@H](O)[C@@H](CO)OC(O)[C@@H]1O (stereo partly drawn)
4.93

###

assay: MRT (0 to 3 hrs) in NCI-H1975 tumor bearing nude mouse model serum at 1 mg/kg, iv; type: ADME, organism-based
assayReadout: MRT last (min)
Please state the figure in min; there is no need to write the unit.

Please give the measured MRT last for this compound: CC(C)[C@]12O[C@H]1[C@@H]1O[C@]13[C@]1(O[C@H]1C[C@H]1C4=C(CC[C@@]13C)C(=O)OC4)[C@@H]2OC(=O)CCC(=O)O[C@H]1C(O)O[C@H](CO)[C@@H](O)[C@@H]1O (stereo partly specified)
33.6

###

assay: Cytotoxicity against HUVEC incubated for 72 hrs by MTT assay; format: toxicity, cell-based; details: human, HUVEC cells
assayReadout: IC50 at 72 h
Write the quantity with the unit trailing the number.

Please give the measured IC50 at 72 h for this compound: CC(C)[C@]12O[C@H]1[C@@H]1O[C@]13[C@]1(O[C@H]1C[C@H]1C4=C(CC[C@@]13C)C(=O)OC4)[C@@H]2OC(=O)CCC(=O)O[C@H]1C(O)O[C@H](CO)[C@@H](O)[C@@H]1O (some centres undefined)
8.55 µM

Please give the measured IC50 at 72 h for this compound: CC(C)[C@]12O[C@H]1[C@@H]1O[C@]13[C@]1(O[C@H]1C[C@H]1C4=C(CC[C@@]13C)C(=O)OC4)[C@@H]2OC(=O)CCC(=O)O[C@@H]1O[C@H](CO)[C@@H](O)[C@H](O)[C@H]1O
8.14 µM

Please give the measured IC50 at 72 h for this compound: CC(C)[C@]12O[C@H]1[C@@H]1O[C@]13[C@]1(O[C@H]1C[C@H]1C4=C(CC[C@@]13C)C(=O)OC4)[C@@H]2OC(=O)CCC(=O)O[C@H]1[C@H](O)[C@@H](O)C(O)O[C@@H]1CO (some centres undefined)
2.36 µM

Please give the measured IC50 at 72 h for this compound: CC(C)[C@]12O[C@H]1[C@@H]1O[C@]13[C@]1(O[C@H]1C[C@H]1C4=C(CC[C@@]13C)C(=O)OC4)[C@@H]2OC(=O)CCC(=O)O[C@H]1O[C@H](CO)[C@@H](O)[C@H](O)[C@H]1O
5.68 µM

###

experiment: Cytotoxicity against human HaCaT cells incubated for 72 hrs by MTT assay; assay type: toxicity, cell-based
Exercise: for every item that follows, state its recorded log10 IC50 at 72 h.
Parameter value (number): base-10 log of IC50 at 72 h in µM.

Please give the measured log10 IC50 at 72 h for this compound: CC(C)[C@]12O[C@H]1[C@@H]1O[C@]13[C@]1(O[C@H]1C[C@H]1C4=C(CC[C@@]13C)C(=O)OC4)[C@@H]2OC(=O)CCC(=O)O[C@@H]1O[C@H](CO)[C@@H](O)[C@H](O)[C@H]1O
0.21

Please give the measured log10 IC50 at 72 h for this compound: CC(C)[C@]12O[C@H]1[C@@H]1O[C@]13[C@]1(O[C@H]1C[C@H]1C4=C(CC[C@@]13C)C(=O)OC4)[C@@H]2OC(=O)CCC(=O)O[C@H]1C(O)O[C@H](CO)[C@@H](O)[C@@H]1O (some centres not stated)
0.82

Please give the measured log10 IC50 at 72 h for this compound: CC(C)[C@]12O[C@H]1[C@@H]1O[C@]13[C@]1(O[C@H]1C[C@H]1C4=C(CC[C@@]13C)C(=O)OC4)[C@@H]2OC(=O)CCC(=O)O[C@H]1O[C@H](CO)[C@@H](O)[C@H](O)[C@H]1O
0.63

Please give the measured log10 IC50 at 72 h for this compound: CC(C)[C@]12O[C@H]1[C@@H]1O[C@]13[C@]1(O[C@H]1C[C@H]1C4=C(CC[C@@]13C)C(=O)OC4)[C@@H]2O [TRIPTOLIDE]
-1.57

Please give the measured log10 IC50 at 72 h for this compound: CC(C)[C@]12O[C@H]1[C@@H]1O[C@]13[C@]1(O[C@H]1C[C@H]1C4=C(CC[C@@]13C)C(=O)OC4)[C@@H]2OC(=O)CCC(=O)OC[C@H]1OC(O)[C@H](O)[C@@H](O)[C@@H]1O (some centres not stated)
0.59

Please give the measured log10 IC50 at 72 h for this compound: CC(C)[C@]12O[C@H]1[C@@H]1O[C@]13[C@]1(O[C@H]1C[C@H]1C4=C(CC[C@@]13C)C(=O)OC4)[C@@H]2OC(=O)CCC(=O)O[C@H]1[C@H](O)[C@@H](O)C(O)O[C@@H]1CO (some centres not stated)
0.68

Please give the measured log10 IC50 at 72 h for this compound: CC(C)[C@]12O[C@H]1[C@@H]1O[C@]13[C@]1(O[C@H]1C[C@H]1C4=C(CC[C@@]13C)C(=O)OC4)[C@@H]2OC(=O)CCC(=O)O[C@H]1[C@H](O)[C@@H](CO)OC(O)[C@@H]1O (some centres not stated)
0.68

###

assay: Cytotoxicity against HUVEC transfected with OE V overexpressing Glut1assessed as decrease in cell viability incubated for 72 hrs by MTT assay; format: toxicity, cell-based; conditions: human, HUVEC cells transfected with OE V overexpressing Glut1
assayReadout: IC50 at 72 h (µM)
Please state the figure in µM; there is no need to write the unit.

Please give the measured IC50 at 72 h for this compound: CC(C)[C@]12O[C@H]1[C@@H]1O[C@]13[C@]1(O[C@H]1C[C@H]1C4=C(CC[C@@]13C)C(=O)OC4)[C@@H]2OC(=O)CCC(=O)O[C@H]1C(O)O[C@H](CO)[C@@H](O)[C@@H]1O (stereo partly specified)
9.22

###

assay: Cytotoxicity against HUVEC transfected with OE overexpressing Glut1assessed as decrease in cell viability incubated for 72 hrs by MTT assay; type: toxicity, cell-based; conditions: human, HUVEC cells transfected with OE overexpressing Glut1
assayReadout: IC50 at 72 h (µM)
Please state the figure in µM; there is no need to write the unit.

Please give the measured IC50 at 72 h for this compound: CC(C)[C@]12O[C@H]1[C@@H]1O[C@]13[C@]1(O[C@H]1C[C@H]1C4=C(CC[C@@]13C)C(=O)OC4)[C@@H]2OC(=O)CCC(=O)O[C@H]1C(O)O[C@H](CO)[C@@H](O)[C@@H]1O (stereo partly specified)
3.17

###

tested on: SW-620; experiment: Cytotoxicity against human SW-620 cells incubated for 72 hrs by MTT assay; type: functional, cell-based; conditions: SW-620, 72 h
assayReadout: pIC50
Remember the convention: pIC50 equals -log10 of concentration in molar.

Please give the measured pIC50 for this compound: CC(C)[C@]12O[C@H]1[C@@H]1O[C@]13[C@]1(O[C@H]1C[C@H]1C4=C(CC[C@@]13C)C(=O)OC4)[C@@H]2O [TRIPTOLIDE]
6.79

Please give the measured pIC50 for this compound: CC(C)[C@]12O[C@H]1[C@@H]1O[C@]13[C@]1(O[C@H]1C[C@H]1C4=C(CC[C@@]13C)C(=O)OC4)[C@@H]2OC(=O)CCC(=O)O[C@H]1[C@H](O)[C@@H](O)C(O)O[C@@H]1CO (stereo partly drawn)
4.96

Please give the measured pIC50 for this compound: CC(C)[C@]12O[C@H]1[C@@H]1O[C@]13[C@]1(O[C@H]1C[C@H]1C4=C(CC[C@@]13C)C(=O)OC4)[C@@H]2OC(=O)CCC(=O)O[C@H]1O[C@H](CO)[C@@H](O)[C@H](O)[C@H]1O
5.41

###

experiment: Stability in mouse serum assessed as unchanged fraction measured after 72 hrs by HPLC analysis relative to control; format: ADME, cell-free; details: read-out: Stability
assayReadout: remaining at 72 h
Write the quantity with the unit trailing the number.

Please give the measured remaining at 72 h for this compound: CC(C)[C@]12O[C@H]1[C@@H]1O[C@]13[C@]1(O[C@H]1C[C@H]1C4=C(CC[C@@]13C)C(=O)OC4)[C@@H]2OC(=O)CCC(=O)O[C@H]1C(O)O[C@H](CO)[C@@H](O)[C@@H]1O (stereo partly specified)
66%
